- test_target: Hypoxia inducible factors; HIF-1-alpha, HIF-2-alpha (Homo sapiens, UniProt Q16665+Q99814)
- experimental_protocol: Inhibition of 1,10-phenanthroline-induced HIF1 activation in human T47D cells after 16 hrs by HRE3-TK-luciferase reporter gene assay
- Assay type: cell-based
Structures can show the parent of a compound that is named as a salt.
Rule: measured IC50 below 1000 nM gets Criterion met; anything equal to or greater than 1000 nM gets Criterion not met.

Is IC50 of C[C@@]12CCCc3coc(c31)C(=O)c1cc3c(cc12)C(=O)C(CO)=CC3=O strictly below 1000 nM? Criterion not met

Here's an entry: C[C@@]12CCCc3coc(c31)C(=O)c1cc3c(cc12)C(=O)C=CC3=O . Is its IC50 below 1000 nM? Criterion not met

Is the reported IC50 for C[C@@]12CCCc3coc(c31)C(=O)c1cc3c(cc12)C(=O)C=C(CO)C3=O strictly below 1000 nM? Criterion not met

State whether 1000 nM exceeds IC50 recorded for C[C@@]12CCCc3coc(c31)C(=O)c1cc3c(cc12)C(=O)C1=C(NCCS1(=O)=O)C3=O . Criterion met

is_below(IC50, 1000 nM) for C[C@@]12CCCc3coc(c31)C(=O)c1cc3c(cc12)C(=O)CCC3=O ? Criterion not met

IC50 under 1000 nM? Item: C[C@@]12CCCc3coc(c31)C(=O)c1cc3c(O)ccc(OS(=O)(=O)O)c3cc12 [XESTOQUINOL SULFATE] Criterion not met

Answer whether the compound C[C@@]12CCCc3coc(c31)C(=O)c1cc3c(cc12)C(=O)C1=NCCS(=O)(=O)C1=C3O has IC50 strictly less than 1000 nM Criterion met
